# measurement target: T1, Recombinant Human TNF-α/TNFSF1A (human, UniProt P01375 77-233)
# T1 construct: Bought reagent (R&D Systems 210-TA); also called hTNF-α; huTNF-α
# T1 sequence (P01375 77-233 limits assumed): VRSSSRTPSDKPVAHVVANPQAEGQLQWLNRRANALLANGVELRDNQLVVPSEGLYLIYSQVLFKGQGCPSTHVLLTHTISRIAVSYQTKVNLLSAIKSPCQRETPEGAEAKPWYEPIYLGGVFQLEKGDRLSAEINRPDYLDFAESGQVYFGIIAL
# protocol notes: SPR (Biacore), antibody captured, TNF-α in solution
result type: Kd (nM)
Number only, in nM; omit the unit.

binder="AB262 (antibody, V domains shown, also called hMAK195VH.2b / hMAK195VL.2) VH: EVQLVESGGGLVQPGGSLRLSCAASGFTLSDYGVNWVRQAPGKGLEWVSMIWGDGSTDYDSTLKSRFTISKDNSKNTLYLQMNSLRAEDTAVYYCAREWHHGPVAYWGQGTLVTVSS VL: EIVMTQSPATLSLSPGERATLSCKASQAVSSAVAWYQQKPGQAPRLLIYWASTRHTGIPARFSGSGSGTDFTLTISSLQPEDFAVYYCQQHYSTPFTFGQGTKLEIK" measurement=0.136

# next binder below
Note to self: Kd recorded for AB250 (antibody, V domains shown, also called hMAK195VH.1b / hMAK195VL.2) VH: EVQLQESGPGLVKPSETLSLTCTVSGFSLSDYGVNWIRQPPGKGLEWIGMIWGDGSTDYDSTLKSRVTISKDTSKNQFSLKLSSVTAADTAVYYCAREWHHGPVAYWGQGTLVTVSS VL: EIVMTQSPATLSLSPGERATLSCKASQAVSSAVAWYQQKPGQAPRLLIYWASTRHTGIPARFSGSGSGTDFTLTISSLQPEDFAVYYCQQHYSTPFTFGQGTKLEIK was 0.179
